- tested.on: rat GAT-2 (Rattus norvegicus, UniProt P31646)
- Sequence (P31646 1-602): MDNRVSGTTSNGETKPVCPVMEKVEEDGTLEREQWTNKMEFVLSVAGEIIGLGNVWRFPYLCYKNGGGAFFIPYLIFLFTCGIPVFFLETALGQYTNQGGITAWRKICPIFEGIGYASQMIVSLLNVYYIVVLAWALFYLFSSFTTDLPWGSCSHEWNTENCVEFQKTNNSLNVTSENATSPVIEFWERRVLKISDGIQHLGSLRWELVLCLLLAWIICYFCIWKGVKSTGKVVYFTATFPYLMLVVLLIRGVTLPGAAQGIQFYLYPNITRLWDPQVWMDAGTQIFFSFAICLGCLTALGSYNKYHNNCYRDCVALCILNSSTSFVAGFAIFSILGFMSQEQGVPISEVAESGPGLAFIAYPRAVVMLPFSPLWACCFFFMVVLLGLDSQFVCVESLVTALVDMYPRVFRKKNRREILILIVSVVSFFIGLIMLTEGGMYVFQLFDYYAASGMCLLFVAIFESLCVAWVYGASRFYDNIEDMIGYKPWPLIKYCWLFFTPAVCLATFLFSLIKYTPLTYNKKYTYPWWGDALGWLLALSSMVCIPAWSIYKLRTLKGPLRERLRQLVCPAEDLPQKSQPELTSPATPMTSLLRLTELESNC
- measurement.notes: Inhibition of [3H]GABA uptake, rat GAT-2 stable LM(tk-) cell line
- settings: read-out: IC50, rat GAT-2, inhibition of [3H]GABA uptake, Table 9, means ± S.E.M.
Parameter: IC50. Scope: all listed entries.

# molecule, tested.on, result.units, IC50
data = [
    ("O=C(O)C1=CCCNC1 [guvacine]", "rat GAT-2 (Rattus norvegicus, UniProt P31646)", "µM", 58),
    ("Cc1ccsc1C(=CCCN1CCC[C@@H](C(=O)O)C1)c1sccc1C [Tiagabine]", "rat GAT-2 (Rattus norvegicus, UniProt P31646)", "µM", 1410),
]

---

Parameter: IC50. Scope: all listed entries.
- tested.on: human BGT-1 (Homo sapiens, UniProt P48065)
- Sequence (P48065 1-614 C10Y): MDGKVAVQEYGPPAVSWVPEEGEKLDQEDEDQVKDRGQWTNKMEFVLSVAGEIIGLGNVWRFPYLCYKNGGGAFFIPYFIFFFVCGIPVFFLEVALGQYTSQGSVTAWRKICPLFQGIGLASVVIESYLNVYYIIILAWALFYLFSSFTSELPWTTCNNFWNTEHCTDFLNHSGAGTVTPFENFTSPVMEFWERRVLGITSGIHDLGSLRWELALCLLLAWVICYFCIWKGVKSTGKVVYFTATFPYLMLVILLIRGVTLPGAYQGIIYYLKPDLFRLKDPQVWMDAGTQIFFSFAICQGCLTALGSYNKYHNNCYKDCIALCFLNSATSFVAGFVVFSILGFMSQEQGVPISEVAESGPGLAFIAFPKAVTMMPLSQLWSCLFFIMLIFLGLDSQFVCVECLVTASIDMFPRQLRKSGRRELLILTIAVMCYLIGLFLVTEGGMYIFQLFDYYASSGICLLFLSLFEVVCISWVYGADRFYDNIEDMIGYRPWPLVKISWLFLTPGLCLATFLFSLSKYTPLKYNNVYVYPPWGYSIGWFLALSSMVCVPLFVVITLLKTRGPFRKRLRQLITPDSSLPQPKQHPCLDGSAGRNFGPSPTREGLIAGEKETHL
- settings: read-out: IC50, human BGT-1, inhibition of [3H]GABA uptake; Table 9; stable LM(tk-) cell line; means ± S.E.M.
parameter.measured: IC50 (µM)

# compound, value.measured
measured = [
    ("O=C(O)C1=CCCN(CCOC(c2ccc(C(F)(F)F)cc2)c2ccc(C(F)(F)F)cc2)C1 [CI-966]", 300),
    ("Cc1ccsc1C(=CCCN1CCC[C@@H](C(=O)O)C1)c1sccc1C [Tiagabine]", 1670),
]

---

- tested.on: human BGT-1 (Homo sapiens, UniProt P48065)
- Sequence (P48065 1-614 C10Y): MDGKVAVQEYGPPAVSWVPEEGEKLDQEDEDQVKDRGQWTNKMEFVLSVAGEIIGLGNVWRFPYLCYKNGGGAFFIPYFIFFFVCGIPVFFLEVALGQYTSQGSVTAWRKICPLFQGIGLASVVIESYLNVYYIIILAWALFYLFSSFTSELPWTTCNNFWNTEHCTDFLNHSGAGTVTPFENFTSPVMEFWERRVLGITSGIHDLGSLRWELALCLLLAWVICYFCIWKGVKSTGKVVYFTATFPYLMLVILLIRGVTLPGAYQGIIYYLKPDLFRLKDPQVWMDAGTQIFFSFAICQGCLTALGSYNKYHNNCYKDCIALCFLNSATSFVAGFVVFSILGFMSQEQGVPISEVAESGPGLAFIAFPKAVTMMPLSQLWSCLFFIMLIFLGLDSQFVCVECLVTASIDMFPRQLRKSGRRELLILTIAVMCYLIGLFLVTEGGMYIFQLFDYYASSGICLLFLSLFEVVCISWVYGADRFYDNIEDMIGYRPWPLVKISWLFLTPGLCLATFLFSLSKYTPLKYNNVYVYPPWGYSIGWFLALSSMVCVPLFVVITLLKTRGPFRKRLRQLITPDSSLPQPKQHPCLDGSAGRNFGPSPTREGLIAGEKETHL
- measurement.notes: cell-based
- settings: IC50, hBGT-1, inhibition of [3H]GABA uptake, stably transfected LM(tk-); 50 nM [3H]GABA; mean ± standard error of at least three experiments
Structures can show the parent of a compound that is named as a salt.
Parameter: IC50. Scope: all listed entries.
parameter.measured: IC50

# compound, parameter.measured, value.measured
rows = [
    ("C[N+](C)(C)CC(=O)O", "IC50", "934 µM"),
    ("O=C(O)C1=CCCN(CCON=C(c2ccccc2)c2ccccc2)C1 [NNC-711, hydrochloride]", "IC50", "160 to 600 µM"),
    ("N=C(N)NCCS(=O)(=O)O", "IC50", "1520 µM"),
]

---

- System: neuronal cultures
- measurement.notes: Inhibition of [3H]GABA uptake in primary rat neuronal cultures
- Assay type: cell-based
- settings: Neuron, read-out: IC50, Neurons, inhibition of [3H]GABA uptake
pIC50: −log10 of the molar value.

# compound, pIC50
rows = [
    ("NCCS(=O)(=O)O [taurine]", 2.08),
]

---

- tested.on: human BGT-1 (Homo sapiens)
- measurement.notes: cell-based
- settings: IC50 at hBGT-1 as stated in text
pIC50: −log10 of the molar value.
parameter.measured: pIC50

# structure.as.smiles, parameter.measured, value.measured
records = [
    ("NCCS(=O)(=O)O", "pIC50", "< 2.00"),
]
